measurement.setup: in ethyl acetate, 318.15 K
quantity: solubility (mole fraction)
Lab note: write the figure by itself, no unit.

## Input // returns reported solubility (mole fraction) for input `CS(=O)(=O)c1ccc(C(=O)C2C(=O)CCCC2=O)c([N+](=O)[O-])c1`
## Output 0.00239

----------
measurement.setup: in n-butyl acetate, 313.15 K
quantity: solubility (mole fraction)
Lab note: write the figure by itself, no unit.

## Input // returns reported solubility (mole fraction) for input `CS(=O)(=O)c1ccc(C(=O)C2C(=O)CCCC2=O)c([N+](=O)[O-])c1`
## Output 0.00155

----------
measurement.setup: in n-butyl acetate, 293.15 K
quantity: solubility (mole fraction)
Lab note: write the figure by itself, no unit.

## Input // returns reported solubility (mole fraction) for input `CS(=O)(=O)c1ccc(C(=O)C2C(=O)CCCC2=O)c([N+](=O)[O-])c1`
## Output 0.000664
